The measurements presented in this section are drawn from patent US20130216552A1.

Let's look at some compounds and their measured IC50.
Biological target: CRTH2 (Homo sapiens, UniProt Q9Y5Y4)
Construct: polymorphonuclear cells (0.5 ml; 10^6/ml cells) in PBS containing 0.9 mM CaCl2 and 0.5 mM MgCl2; endogenous in cells; host or cells: polymorphonuclear cells (eosinophils gated by flow cytometry)
Sequence (Q9Y5Y4 1-395): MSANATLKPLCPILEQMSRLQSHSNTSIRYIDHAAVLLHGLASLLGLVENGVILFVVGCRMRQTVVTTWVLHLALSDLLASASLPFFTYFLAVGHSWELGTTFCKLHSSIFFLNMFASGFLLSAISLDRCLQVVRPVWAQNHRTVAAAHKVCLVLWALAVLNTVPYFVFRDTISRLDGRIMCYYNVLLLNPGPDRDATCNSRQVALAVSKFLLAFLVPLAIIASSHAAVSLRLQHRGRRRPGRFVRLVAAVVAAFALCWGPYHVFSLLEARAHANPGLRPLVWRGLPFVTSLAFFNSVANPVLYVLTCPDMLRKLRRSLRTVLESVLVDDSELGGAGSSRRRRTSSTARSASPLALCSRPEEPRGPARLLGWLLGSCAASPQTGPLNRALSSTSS
Test: Human Whole Blood CD11b Antagonist Assay
Assay type: cell-based
Conditions: CD11b expression in eosinophils, agonist 15R-Methyl-PGD2 (10 nM)

Solved entries (count: 4):
Smi	IC50
Cc1c(Cc2ccccc2S(=O)(=O)N2CCOCC2)c2ccsc2n1CC(=O)O	5 to 20 nM
Cc1c(Cc2ccccc2S(=O)(=O)N2CCOCC2)c2scnc2n1CC(=O)O	3000 to 5000 nM
Cc1c(Cc2ccccc2S(=O)(=O)c2ccccc2)c2ccsc2n1CC(=O)O	5 to 20 nM
Cc1c(Cc2ccccc2S(=O)(=O)N2CCCC2)c2sccc2n1CC(=O)O	20 to 100 nM

In: Lab note: need IC50 with CRTH2 (Homo sapiens, UniProt Q9Y5Y4) for entry Cc1c(Cc2ccccc2S(=O)(=O)N2CCCC2)c2ccsc2n1CC(=O)O , please look it up.
Out: 20 to 100 nM
